tested on: K4 kissing-loop RNA reporter; assay: apparent KD of K4 kissing-loop reporter; higher = weaker reporter binding; settings: Eterna round: R107; input ligand: arginine 13.2 mM;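 further: bound reporter read as fluorescence of individual clusters on recovered sequencing chips by microscopy, with normalized cluster intensities fitted with a binding model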
Consider the following sequences; for each one, report its apparent KD of K4 kissing-loop reporter.
One number for each entry, in µM.

Use these answered entries as a reference point.
UGACUGGACUGAAGGAGCGCUAAACUCCUAGUGAUGUUAGGGAAACAAGACAAAGUCUUGAGGCAGGUAGGUCGCAGUCUAGUCU [FiskerMod 3 - Jieux - Same State - Arginine B] | 0.199
UUUUGCUAGCGAAACGCUAGCUUAACAGAUACCAGUCGCGAAAGCGACCCUUGGCAGCUGCUGAGUGAUGUUCAGGUGAGAGUUA | 0.221

Let us move to another entry and its apparent KD of K4 kissing-loop reporter.
Provide only the value of recorded apparent KD of K4 kissing-loop reporter for AGAUUCGACACGGCCGCCACUCGUGGAUCUUGGUUGAGAGAUGAAAUAGAGUGAUGUUCUAAUACGAGGACCGGGUGUUGAGUCU [KL-SSTryp-B23]
0.165

---

tested on: MS2 coat protein; assay: apparent KD of MS2 coat protein; higher = weaker reporter binding; conditions: Eterna round: R107; input ligand: tryptophan 2.4 mM
quantity measured: apparent KD of MS2 coat protein (nM)
Answers are plain numbers, in nM.

UGUAUGGACUGAAGGAGCGGAUGAUAAUCUGAGGAUCACCCAGGUAAUAAGGCGAAAGCCAUCCAGGUAGGUCGCAGUCCAUACU | 103
AUAUGAUCAUGUGAUACCAGAAAUGGUAUUCCUCGCUGGAUUACAUGAGGAUCACCCAUGUUCCCUUGGCAGCAUAUGAUCAUAU [#01 Exclusion-TheophyllineB] | 20.9

Look up apparent KD of MS2 coat protein for the entries below, preserving their order.
1. UGUAUGUGAUCUGAUACCAGAGUUGAUAACCUGAGGAUCACCCUGGUAAGGCGAAAGCCACUCCCUUGGCAGCAGAUCGCAUACU
2. AGCCGGAUUACGGCCGCCACUGUAGACGUGACGAAAGUCGCGUCAACAUGAGGAUCACCCAUGUACAGGACCGGGUGGUCCGGCA [Omei Trp B SS A v3]

[101, 8.97]

Look up apparent KD of MS2 coat protein for the entries below, preserving their order.
1. AACAGUAUUAUAGAUACCAGCAGGUCAUAAGACAUGAGGAUCACCCAUGUGAAUGAGGUAUGCCCUUGGCAGCUAUGAGGUCCUC [theeternabot_sameState_MS2_Theo_B_18]
2. ACAUGAGGAUCACCCAUGUGAAGGCACGAUACCAGCUGAUCCCGUGGCCCUUGGCAGCGUCCGGUGUGGUCCGGCGGAUGGGACG [xwxmullin]

[126, 26.4]

---

tested on: MS2 coat protein; experiment: apparent KD of MS2 coat protein; designed switch direction (-1 OFF switch, 1 ON switch): -1; higher = weaker reporter binding; details: Eterna round: R95; input ligand: none
If the reported apparent KD of MS2 coat protein equals or exceeds 50 nM, assign Y. If not, assign N.

AGUAACUAUCACGAAAGUGAUAGUUACAAUAGCAGUGAAACAUGAGGAUCACCCAUGUCCUCAUUUGCUCGUCUUAU [Sensor 3 - 23] (puzzle: Sensor v3, turn-off variant 2) | Y
UUAUACGCUGAGGAUAUCUUCACUGAGAGGUGAAGAGAAGGCGGUACAUGAGGAUCACCCAUGUCUAUGGGCAG [Ex-6 Malc#20] (puzzle: Exclusion 6) | Y
AAAGAACAUGAGGAUCACCCAUGUGAGGAUAUGUAAGGAUUGUGGAGAAGAAGAGAGAACAGAAGGCACGGAGG [JR_Exclu1_Sub068] (puzzle: Exclusion 1) | N
GGUUGGCGAGGAUAUACAUGAGGAUCACCCAUGUGAUAGAAAAAAGUGAGGAAGAAAAGUAGAAGGCGCUGACG [salish99_ex3_r3_009] (puzzle: Exclusion 3) | Y
AGGAGUAGUAUCCGAUCCUACAUGAGGAUCACCCAUGUAGCUAGACGUGCACGCGAUGCUCGUCAGACUACCAGAUG [salish99_TOv1_r3_034] (puzzle: Sensor v3, turn-off variant 1) | Y
UAUAAAACAUAGGAUAUCGAAAUUAUCAUUUAACGAGAAGGAUGAACAUGAGGAUCACCCAUGUGGUAUCAUGG [Mat - Exclusion 6 - JL Mod - D10] (puzzle: Exclusion 6) | Y
GAGGAGCAAGGAUAUACGAGGAUAGGGAAGUGAGGAGAGUGACAUGAGGAUCACCCAUGUAGAAGGUGCAAGGG [JR_Exclu2_Sub094] (puzzle: Exclusion 2) | Y
ACAAGCUUUUUGCAUGUUAGUUUUGUUGCUUCGUAUGUAACAUGAGGAUCACCCAUGUAAGACUGAUGUCGUCGUUU [JR_SV3TOV2_Sub088] (puzzle: Sensor v3, turn-off variant 2) | Y

In plain terms: is recorded apparent KD of MS2 coat protein at least 50 nM for CCGCAUAAGCAGGAUAUCGUAUCGGAAACGAUACGAGAAGGGUUUACAUGAGGAUCACCCAUGUUCCUUAGCGG [Mat - Exclusion 6 - Eli Mod - D100] (puzzle: Exclusion 6) ?
N

In plain terms: is recorded apparent KD of MS2 coat protein at least 50 nM for ACUAGCGAAAUGCUCGUCUUAUUUUUGUAGAGGUUCUAAACAUGAGGAUCACCCAUGUAGUGGUUUUUGUGGAGGUA [JR_SV3TOV2_Sub071] (puzzle: Sensor v3, turn-off variant 2) ?
Y

In plain terms: is recorded apparent KD of MS2 coat protein at least 50 nM for AACCGGCGGACCGAAGCUUUUUGCUUGUUUUAUACUACAACAUGAGGAUCACCCAUGUGGUGGUGGUCCGUUGUAGA [Bitein] (puzzle: Sensor v3, turn-off variant 2) ?
Y

In plain terms: is recorded apparent KD of MS2 coat protein at least 50 nM for ACAAGCUUUUUGUUCGUCUUAUAAUAAUAAAUAAAUAUAACAUGAGGAUCACCCAUGUUGAGAAGACAGCCUCAUGU [Sesor Array 23 - Jieux - Sensor v3, turn-off variant 2] (puzzle: Sensor v3, turn-off variant 2) ?
Y

In plain terms: is recorded apparent KD of MS2 coat protein at least 50 nM for GAAAAGUGAGGAUAUGGUAAAAGAAGAAGAAGAAGAAAACUCCAGAAGGCACAUGAGGAUCACCCAUGUGAAAG [salish99_ex4_r3_008] (puzzle: Exclusion 4) ?
N

In plain terms: is recorded apparent KD of MS2 coat protein at least 50 nM for GGUUGGCGAGGAUAUACAUGAGGAUCACCCAUGUGAGAGAAAUAAGUGAGGAAGAAAAGUAGAAGGCGCUGACG [salish99_ex3_r3_014] (puzzle: Exclusion 3) ?
Y

In plain terms: is recorded apparent KD of MS2 coat protein at least 50 nM for AGGUGACAUGAGGAUCACCCAUGUAAGGAUAUACGGUUAGUGGAGAGAGGGAAGAGAGGUAGAAGGUACGGAGC [JR_Exclu1_Sub058] (puzzle: Exclusion 1) ?
Y

---

tested on: MS2 coat protein; assay: apparent KD of MS2 coat protein; designed switch direction (-1 OFF switch, 1 ON switch): -1; higher = weaker reporter binding; conditions: input ligand: microRNA oligo, concentration not stated
Consider the following sequences; for each one, report its apparent KD of MS2 coat protein.

GUCAGCUCGUGAGGAUAUACAUGAGGAUCACCCAUGUGAUCAAUAGCAGCUUCGGCUGCAUACAUGUAGAAGGCACGAGCUGAU [ENG2/6-A2] (Eterna round: R96, puzzle: Exclusion NG 2) | 0.0275 µM
AUUAUACAUGUAGGAUAUCUGCACGUGUAGUGCAGAGAAGGACAUGAGGAUCACCCAUGUAGAUCAAUAAUAAUUAAUUUAAUU [ENG1/6-B3] (Eterna round: R96, puzzle: Exclusion NG 1) | 0.0968 µM
ACAUGAGGAUCACCCAUGUUUUUUGGGUACUCUUGAUACAGCAAGGAUAUGCAUUAUUUAUGUACGCAGAAGGUGCAUUACGUC [JR_ExcNG3_Sub063] (Eterna round: R96, puzzle: Exclusion NG 3) | 0.837 µM
ACAUGAGGAUCACCCAUGUGAAAACAAUGGCUGACACAGAGAUAGGAUAUAUGUGCAUAUCAAACAUAGAAGGGUCAUAACUGG [Deportation 85 - Jieux - Exclusion NG 3] (Eterna round: R96, puzzle: Exclusion NG 3) | 0.0406 µM

Let us move to another entry and its apparent KD of MS2 coat protein.
Provide only the value of recorded apparent KD of MS2 coat protein for CCAUAUAACUGAGGAUAUAAUCGCCACUGACGUUUAGAAGGCAGACAUGAGGAUCACCCAUGUGAUUUCUCAAUAUUAUACAUC [Prohibition 78 - Jieux - Exclusion NG 1] (Eterna round: R96, puzzle: Exclusion NG 1)
0.0311 µM
